Measured values drawn from patent US5401490A for this set.

Experiment: Tissue distribution of radioactivity after intravenous injection
Type: in vivo, BALB/C mice
Details: mouse, stomach, iv; 1 h, i.v.; read-out: Percent of Injected Dose per Gram, Stomach
REPORTED_PROPERTY: tissue uptake at 1 h (%ID/g)

>>> endpoint_result("O=[N+]([O-])c1nccn1[C@@H]1O[C@H](CI)[C@H](O)[C@H](O)[C@H]1O [IAZG]")
1.38
>>> endpoint_result("O=[N+]([O-])c1nccn1[C@@H]1O[C@H](CI)[C@@H](O)[C@@H]1O [IAZA]")
3.95

----------
Experiment: Tissue distribution of radioactivity after intravenous injection
Type: in vivo, BALB/C mice
Conditions: mouse, bone, iv; 0.50 h, i.v.; read-out: Percent of Injected Dose per Gram, Bone
REPORTED_PROPERTY: tissue uptake at 0.5 h (%ID/g)

>>> endpoint_result("O=[N+]([O-])c1nccn1[C@@H]1O[C@H](CI)[C@@H](O)[C@@H]1O [IAZA]")
1.37

----------
Assay: Tissue distribution of radioactivity after intravenous injection
Type: in vivo, BALB/C mice
Details: mouse, tumor, iv; 2 h, i.v.; read-out: Percent of Injected Dose per Gram, Tumor
REPORTED_PROPERTY: tissue uptake at 2 h (%ID/g)

>>> endpoint_result("O=[N+]([O-])c1nccn1[C@@H]1O[C@H](CI)[C@H](O)[C@H](O)[C@H]1O [IAZG]")
0.77
>>> endpoint_result("O=[N+]([O-])c1nccn1[C@@H]1O[C@H](CI)[C@@H](O)[C@@H]1O [IAZA]")
2.55

----------
Assay: Tissue distribution of radioactivity after intravenous injection
Type: in vivo, BALB/C mice
Details: mouse, blood, iv; 1 h, i.v.; read-out: Percent of Injected Dose per Gram, Blood
Listed next: entries and their corresponding tissue uptake at 1 h.
REPORTED_PROPERTY: tissue uptake at 1 h (%ID/g)

>>> endpoint_result("O=[N+]([O-])c1nccn1[C@@H]1O[C@H](CI)[C@@H](O)[C@@H]1O")
1.84
>>> endpoint_result("O=[N+]([O-])c1nccn1[C@@H]1O[C@H](CI)[C@H](O)[C@H](O)[C@H]1O")
0.86

----------
Assay: Tissue distribution of radioactivity after intravenous injection
Type: in vivo, BALB/C mice
Conditions: mouse, heart, iv; 0.50 h, i.v.; read-out: Percent of Injected Dose per Gram, Heart
REPORTED_PROPERTY: tissue uptake at 0.5 h

>>> endpoint_result("O=[N+]([O-])c1nccn1[C@@H]1O[C@H](CI)[C@@H](O)[C@@H]1O")
"3.56 %ID/g"

----------
Assay: Tissue distribution of radioactivity after intravenous injection
Format: in vivo, BALB/C mice
Settings: mouse, spleen, iv; 8 h, i.v.; read-out: Percent of Injected Dose per Gram, Spleen
REPORTED_PROPERTY: tissue uptake at 8 h

>>> endpoint_result("O=[N+]([O-])c1nccn1[C@@H]1O[C@H](CI)[C@@H](O)[C@@H]1O [IAZA]")
"0.18 %ID/g"

----------
Experiment: Tissue distribution of radioactivity after intravenous injection
Assay type: in vivo, BALB/C mice
Details: mouse, kidney, iv; 24 h, i.v.; read-out: Percent of Injected Dose per Gram, Kidney
Listed next: entries and their corresponding tissue uptake at 24 h.
REPORTED_PROPERTY: tissue uptake at 24 h (%ID/g)

>>> endpoint_result("O=[N+]([O-])c1nccn1[C@@H]1O[C@H](CI)[C@@H](O)[C@@H]1O")
0.52
>>> endpoint_result("O=[N+]([O-])c1nccn1[C@@H]1O[C@H](CI)[C@H](O)[C@H](O)[C@H]1O")
0.09

----------
Assay: Tissue distribution of radioactivity after intravenous injection
Assay type: in vivo, BALB/C mice
Conditions: mouse, carcass, iv; 0.25 h, i.v.; read-out: Percent of Injected Dose per Gram, Carcass
REPORTED_PROPERTY: tissue uptake at 0.25 h (%ID/g)

>>> endpoint_result("O=[N+]([O-])c1nccn1[C@@H]1O[C@H](CI)[C@@H](O)[C@@H]1O")
2.68

----------
Assay: Tissue distribution of radioactivity after intravenous injection
Format: in vivo, BALB/C mice
Settings: mouse, liver, iv; 0.50 h, i.v.; read-out: Percent of Injected Dose per Gram, Liver
REPORTED_PROPERTY: tissue uptake at 0.5 h (%ID/g)

>>> endpoint_result("O=[N+]([O-])c1nccn1[C@@H]1O[C@H](CI)[C@@H](O)[C@@H]1O")
7.14
>>> endpoint_result("O=[N+]([O-])c1nccn1[C@@H]1O[C@H](CI)[C@H](O)[C@H](O)[C@H]1O")
2.96

----------
Test: Tissue distribution of radioactivity after intravenous injection
Assay type: in vivo, BALB/C mice
Settings: mouse, spleen, iv; 0.25 h, i.v.; read-out: Percent of Injected Dose per Gram, Spleen
REPORTED_PROPERTY: tissue uptake at 0.25 h (%ID/g)

>>> endpoint_result("O=[N+]([O-])c1nccn1[C@@H]1O[C@H](CI)[C@@H](O)[C@@H]1O")
3.57

----------
Assay: Tissue distribution of radioactivity after intravenous injection
Type: in vivo, BALB/C mice
Settings: mouse, spleen, iv; 0.50 h, i.v.; read-out: Percent of Injected Dose per Gram, Spleen
REPORTED_PROPERTY: tissue uptake at 0.5 h (%ID/g)

>>> endpoint_result("O=[N+]([O-])c1nccn1[C@@H]1O[C@H](CI)[C@@H](O)[C@@H]1O")
3
